- Tested on: Crude diglycosidase
- assay notes: Examination of pH in the conversion into isoflavone aglycons by diglycosidase using soybean materials
- Assay type: biochemical, Penicillium multicolor IAM7153
- Set-up: concentration or dose not given beside the values
- particulars: pH7.8; heat treatment of enzyme: no; reaction time 1 h
measured quantity: Decomposition efficiency of daidzin family in defatted soybean (%)
Provide the reading as a plain figure in %.

{"columns": ["compound", "target or system", "reported measurement"],
 "data": [
  ["O=C(O)CC(=O)OC[C@H]1O[C@@H](Oc2ccc3c(=O)c(-c4ccc(O)cc4)coc3c2)[C@H](O)[C@@H](O)[C@@H]1O [malonyldaidzin, 6″-O-malonyldaidzin]", "Crude diglycosidase", 43.6],
  ["O=c1c(-c2ccc(O)cc2)coc2cc(O[C@@H]3O[C@H](CO)[C@@H](O)[C@H](O)[C@H]3O)ccc12 [daidzin]", "Crude diglycosidase", 13.3]
]}

Now consider the entry below.
Query: Decomposition efficiency of daidzin family in defatted soybean of O=c1c(-c2ccc(O)cc2)coc2cc(O)ccc12 [daidzein] on Crude diglycosidase?
Reply: 43.1

---

- Test system: Crude diglycosidase
- assay notes: Examination of temperature in the conversion into isoflavone aglycons by diglycosidase using soybean materials
- Format: biochemical, Penicillium multicolor IAM7153
- particulars: 55 °C; heat treatment of enzyme: no; 1 h
measured quantity: Decomposition efficiency of glycitin family in soymilk (%)
Provide the reading as a plain figure in %.

{"columns": ["compound", "reported measurement"],
 "data": [
  ["COc1cc2c(=O)c(-c3ccc(O)cc3)coc2cc1O[C@@H]1O[C@H](COC(=O)CC(=O)O)[C@@H](O)[C@H](O)[C@H]1O [malonylglycitin, 6″-O-malonylglycitin]", 39.1]
]}

Query: Please report the recorded Decomposition efficiency of glycitin family in soymilk for COc1cc2c(=O)c(-c3ccc(O)cc3)coc2cc1O [glycitein] .
Reply: 60.9

---

Isolation of isoflavone aglycons by diglycosidase in presence of glucose: recorded values
- Tested on: Purified diglycosidase
- assay notes: Influence of free glucose on diglycosidase activity
- Type: biochemical, Penicillium multicolor IAM7153
- particulars: Glucose concentration 20 %; isolated aglycon amount at glucose 0% and 0.5 hour = 100%
Provide the reading as a plain figure in %.

{"columns": ["smiles representation", "target or system", "reported measurement"],
 "data": [
  ["COc1cc2c(=O)c(-c3ccc(O)cc3)coc2cc1O[C@@H]1O[C@H](COC(=O)CC(=O)O)[C@@H](O)[C@H](O)[C@H]1O", "Purified diglycosidase", 116.4]
]}

Query: Please report the recorded Isolation of isoflavone aglycons by diglycosidase in presence of glucose for O=C(O)CC(=O)OC[C@H]1O[C@@H](Oc2ccc3c(=O)c(-c4ccc(O)cc4)coc3c2)[C@H](O)[C@@H](O)[C@@H]1O .
Reply: 98.1

---

- Test system: Crude diglycosidase
- assay notes: Examination of temperature in the conversion into isoflavone aglycons by diglycosidase using soybean materials
- Assay type: biochemical, Penicillium multicolor IAM7153
- Set-up: concentration or dose not given beside the values
- particulars: 55° C., heat treatment of enzyme no, reaction time 1 h
- Description: Into 400 μL of 20 mM acetate buffer of pH 4.0 was suspended 50 mg of each of various soybean materials (roasted soy flour (manufactured by Fuji Shokuryo K.K.), soymilk (manufactured by Gitoh Shokuhin K.K.), defatted soybean (manufactured by Fuji Seiyu K.K.), concentrated soybean protein (manufactured by Fuji Seiyu K.K.)), whereby a substrate solution was prepared. Crude diglycosidase was diluted with 20 mM acetate buffer of pH 4.0 to be the glycosidase activity of 1.88 AU/mL. […]
measured quantity: Decomposition efficiency of daidzin family in defatted soybean (%)
Provide the reading as a plain figure in %.

{"columns": ["molecule", "reported measurement"],
 "data": [
  ["O=C(O)CC(=O)OC[C@H]1O[C@@H](Oc2ccc3c(=O)c(-c4ccc(O)cc4)coc3c2)[C@H](O)[C@@H](O)[C@@H]1O [malonyldaidzin, 6″-O-malonyldaidzin]", 45.0]
]}

Query: Please report the recorded Decomposition efficiency of daidzin family in defatted soybean for O=c1c(-c2ccc(O)cc2)coc2cc(O)ccc12 [daidzein] .
Reply: 55.0
